Reported growth inhibition values for the following compounds.
Test: NCI Yeast Anticancer Drug Screen. Data for the rad50 strain (AID 155);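 also: 0% = growth of vehicle-only cultures of the same strain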
Details: S. cerevisiae rad50 strain growth inhibition; at 50.0 µM; hits give high values
This is part of a sample that, as a whole, favours compounds with a hit. Of some 79,000 tested, about 15% had one in any assay.
Report the figure in % without appending any unit label.

Enquiry: Query (compound): CC(O)(c1ccccc1)C1CC1c1ccccc1 (configuration not stated) ; field requested: growth inhibition
Return: 29.9

Enquiry: Repeat for the following compound: O=C(NN1C(=O)CSC1c1ccc(F)cc1)c1ccncc1 (configuration not stated)
Return: -4.2

Enquiry: Likewise for CCCCc1ccc(Nc2nc(SC)c3[nH]cnc3n2)cc1 ?
Return: 0.85

Enquiry: Subsequent entry: CS/C(=N/N=C(\C)c1ccccn1)[Se][Se]/C(=N/N=C(\C)c1ccccn1)SC
Return: 15.7

Enquiry: How about this compound: NC(=O)C(=CNC(=S)Nc1cccc(C(F)(F)F)c1)C(N)=O
Return: -45

Enquiry: Moving on to O=[N+]([O-])c1cccnc1Sc1ccccc1C1=NCCCN1
Return: -5.55
